# TEST DESCRIPTION: Toxicity liver stage against HepG2, at 10uM
# Format: cell-based
# Design: test concentration 10 uM, cell line HepG2-A16-CD81EGFP
# CONDITION DETAILS: human, HepG2-A16-CD81EGFP cells; read-out: INHIBITION
REPORTED METRIC: cytotoxicity at 10 µM (%)
Number in %, nothing else.

For orientation, consider the following solved cases.
Cc1cnn(CC2CCCCN2C(=O)Cc2cn3ccsc3n2)c1 (stereo not drawn)
-5.5
Cc1ccc(NC(=O)N(C)CC(O)COCCOC(C)C)c(Br)c1 (stereo not drawn)
11.2
CCc1nccn1C1CCCN(C(=O)c2ccnc(N(C)C)c2)C1 (stereo not drawn)
0.795
Oc1cccc(CN2CCN(c3nccc(CCC(F)(F)F)n3)CC2)c1
-18.7
OC1(CN2CCOC(Cn3cncn3)C2)CCCCC1 (stereo not drawn)
9.87
CN1CCN(Cc2cnc3n2CCN(C(=O)c2ccoc2)C3)CC1
-80.7
Cn1cc(C(O)CNC(=O)c2cc(Br)ccc2Cl)cn1 (stereo not drawn)
2.06
Cc1noc(-c2ccnc(Oc3ccccc3CN3CCCCC3)c2)n1
-1.76
Cc1cc(C(=O)NCc2cccnc2N2CCCC(O)C2)[nH]n1 (stereo not drawn)
4.52
Cc1ccc(OCC(C)NC(=O)CN(C)c2ccc(C#N)cn2)cc1 (stereo not drawn)
-6.05

Memo: Cc1cc(C(=O)N2CCc3c(CN(C)C(C)C)n[nH]c3C2)[nH]n1 , reported cytotoxicity at 10 µM: -133

The recorded cytotoxicity at 10 µM for COc1cc2c(cc1OC)S(=O)(=O)N(Cc1ccc(C)cc1)C2=O is 8.74

Item: Cc1nc2n(n1)CC(NCc1cc(Cl)c3c(c1)OCCO3)CC2 (stereo not drawn) | cytotoxicity at 10 µM: -6.14

cytotoxicity at 10 µM measured on Cc1nc(C2CCN(C[C@H](C)CO)CC2)cc(N2CCOCC2)n1 = -9.3

The reported value for Cc1nnc2n1CCN(C(=O)c1cc(C)n(-c3ccccc3)c1C)C2 in terms of cytotoxicity at 10 µM is -4.94

Record COCCC(=O)N1CC[C@@H](N(C)C)[C@@H]1Cc1ccccc1 , field cytotoxicity at 10 µM: -5.05

The compound listed as CCc1ncncc1C(=O)N1CCCN(Cc2ccc(C)cc2)CC1 has a reported cytotoxicity at 10 µM of -0.611

Looking up Cc1nn(-c2ccc(C(=O)O)cc2)c2c1C(C(C)C)SCC(=O)N2 (stereo not drawn) , I found its cytotoxicity at 10 µM recorded as -3.58

The compound O=C(CCc1n[nH]c2c1CCCC2)N1C[C@H]2CC[C@@H](C1)N(CC1CC1)C2 showed cytotoxicity at 10 µM equal to -3.73

Entry O=c1cc(CNCc2ccc3c(c2)OCO3)nc2ccc(Br)cn12 , cytotoxicity at 10 µM reported as -2.62

Field cytotoxicity at 10 µM (entry CC(=O)c1cc(CN2C[C@@H](CN3CCC(O)CC3)[C@@H](CO)C2)n(C)c1 ) reads 7.58

Entry Cc1c(NC(=O)c2cccc(Br)c2)c(C(=O)N(C)C)nn1C ; cytotoxicity at 10 µM = 2.35

Field cytotoxicity at 10 µM (entry O=C(NCC1CC1)C1=NOC2(CCN(Cc3ccsc3)C2)C1 (stereo not drawn) ) reads 1.47
